# Test system: cotton
# ASSAY_PROCEDURE: Test Example 4, pre-emergence treatment, phytotoxicity to cotton; further: ranges in brackets are in %
# Type: in vivo
# CONDITION_NOTES: 10 g/are, 20 days
ENDPOINT: Phytotoxicity, Cotton

// worked examples, Phytotoxicity, Cotton included
CCC(C)Oc1cc(N2C(=O)C3=C(CCCC3)C2=O)c(F)cc1Br (centres unmarked) [compound 15] = 1 (90-99)
CCOc1cc(N2C(=O)C3=C(CCCC3)C2=O)c(F)cc1Br [compound 13] = 1 (90-99)
CCCOc1cc(N2C(=O)C3=C(CCCC3)C2=O)c(F)cc1Br [compound 14] = 0 (100)
CCOc1cc(N2C(=O)C3=C(CCCC3)C2=O)c(F)cc1Cl [compound 2] = 0 (100)

Consider now this further compound.
Qu. Please give the measured Phytotoxicity, Cotton for this compound: COc1cc(N2C(=O)C3=C(CCCC3)C2=O)c(F)cc1Cl [Compound No. 1]
Ans. 2 (80-89)

---

# System: morningglory
# ASSAY_PROCEDURE: Test Example 4, pre-emergence treatment, herbicidal activity; further: ranges in brackets are in %
# Assay type: in vivo
# CONDITION_NOTES: 10 g/are, 20 days
ENDPOINT: Herbicidal activity, Morningglory

CCCOc1cc(N2C(=O)C3=C(CCCC3)C2=O)c(F)cc1Cl [compound 3] = 4 (1-10)
CCOc1cc(N2C(=O)C3=C(CCCC3)C2=O)c(F)cc1Cl [compound 2] = 4 (1-10)
CCC(C)Oc1cc(N2C(=O)C3=C(CCCC3)C2=O)c(F)cc1Br (stereo not drawn) [compound 15] = 5 (0)
O=C1C2=C(CCCC2)C(=O)N1c1ccc(Cl)cc1F [A, reference compound] = 2 (21-40)
COc1cc(N2C(=O)C3=C(CCCC3)C2=O)c(F)cc1Cl [Compound No. 1] = 5 (0)

Consider now this further molecule.
Qu. Please give the measured Herbicidal activity, Morningglory for this molecule: COc1cc(N2C(=O)C3=C(CCCC3)C2=O)c(F)cc1Br [Compound No. 12]
Ans. 5 (0)
